- Tested on: hiPSC-CMs (iCell-Cardiomyocytes^2)
- setup_conditions: 1 µM, 96h
outcome_measure: EAD, number of observations/total well numbers

Recorded EAD, number of observations/total well numbers (compound COc1cccc2c1C(=O)c1c(O)c3c(c(O)c1C2=O)C[C@@](O)(C(=O)CO)C[C@@H]3O[C@H]1C[C@H](N)[C@H](O)[C@H](C)O1 ): 0/5

Recorded EAD, number of observations/total well numbers (compound C#Cc1cccc(Nc2ncnc3cc(OCCOC)c(OCCOC)cc23)c1 ): 0/5

Recorded EAD, number of observations/total well numbers (compound COc1cc2c(Nc3ccc(Br)cc3F)ncnc2cc1OCC1CCN(C)CC1 ): 0/5

----------
- System: hiPSC-CMs (iCell-Cardiomyocytes^2)
- setup_conditions: 1 µM, 24h
- Protocol: Cells were seeded according to the instructions of the cell provider, in fibronectin-coated 48-well MEA plates (Axion Cytoview Plates, M768-tMEA-48B) at a density suited to form a monolayer (i.e., 50 K/well) and maintained in culture in a stage incubator (37°C, 5% CO2). […] The potential presence of various arrhythmic events was evaluated and noted during the data analysis. […]
outcome_measure: Cessation of beating, number of observations/total well numbers

Recorded Cessation of beating, number of observations/total well numbers (compound COc1nc(N)nc2c1ncn2[C@@H]1O[C@H](COP(=O)(N[C@@H](C)C(=O)OCC(C)(C)C)Oc2cccc3ccccc23)[C@@H](O)[C@@]1(C)O (stereo partly drawn) ): 0/5

Recorded Cessation of beating, number of observations/total well numbers (compound N=C(N)c1ccc(OCCCCCOc2ccc(C(=N)N)cc2)cc1 ): 0/6

Recorded Cessation of beating, number of observations/total well numbers (compound Cc1cn(-c2cc(NC(=O)c3ccc(C)c(Nc4nccc(-c5cccnc5)n4)c3)cc(C(F)(F)F)c2)cn1 ): 0/5

----------
- Test system: hiPSC-CMs (iCell-Cardiomyocytes^2)
- setup_conditions: 3 µM; 48h
- Experimental: Cells were seeded according to the instructions of the cell provider, in fibronectin-coated 48-well MEA plates (Axion Cytoview Plates, M768-tMEA-48B) at a density suited to form a monolayer (i.e., 50 K/well) and maintained in culture in a stage incubator (37°C, 5% CO2). […] The potential presence of various arrhythmic events was evaluated and noted during the data analysis. […]
outcome_measure: FPDc (field-potential duration corrected by beat-rate), % change from baseline (%)
Respond numerically; units are % and should not be typed.

Recorded FPDc (field-potential duration corrected by beat-rate), % change from baseline (molecule O=C(O)COCCN1CCN(C(c2ccccc2)c2ccc(Cl)cc2)CC1 (stereo not drawn) ): 12.5

Recorded FPDc (field-potential duration corrected by beat-rate), % change from baseline (molecule N=C(N)c1ccc(OCCCCCOc2ccc(C(=N)N)cc2)cc1 ): 52.6

Recorded FPDc (field-potential duration corrected by beat-rate), % change from baseline (molecule COc1nc(N)nc2c1ncn2[C@@H]1O[C@H](COP(=O)(N[C@@H](C)C(=O)OCC(C)(C)C)Oc2cccc3ccccc23)[C@@H](O)[C@@]1(C)O (stereo partly drawn) ): 2.6

----------
Give Cessation of beating, number of observations/total well numbers for every item shown.
- System: hiPSC-CMs (iCell-Cardiomyocytes^2)
- setup_conditions: 1 µM, 24h

Recorded Cessation of beating, number of observations/total well numbers (compound C#Cc1cccc(Nc2ncnc3cc(OCCOC)c(OCCOC)cc23)c1 [Erlotinib] ): 0/5

Recorded Cessation of beating, number of observations/total well numbers (compound CC(C)(Sc1cc(C(C)(C)C)c(O)c(C(C)(C)C)c1)Sc1cc(C(C)(C)C)c(O)c(C(C)(C)C)c1 [Probucol] ): 0/4

Recorded Cessation of beating, number of observations/total well numbers (compound COc1cccc2c1C(=O)c1c(O)c3c(c(O)c1C2=O)C[C@@](O)(C(=O)CO)C[C@@H]3O[C@H]1C[C@H](N)[C@H](O)[C@H](C)O1 [Doxorubicin] ): 0/5

Recorded Cessation of beating, number of observations/total well numbers (compound COc1cc2c(Nc3ccc(Br)cc3F)ncnc2cc1OCC1CCN(C)CC1 [Vandetanib] ): 0/5

----------
Give FPD (field-potential duration), % change from baseline for every item shown.
- System: hiPSC-CMs (iCell-Cardiomyocytes^2)
- setup_conditions: 10 µM; 24h
- Method: Cells were seeded according to the instructions of the cell provider, in fibronectin-coated 48-well MEA plates (Axion Cytoview Plates, M768-tMEA-48B) at a density suited to form a monolayer (i.e., 50 K/well) and maintained in culture in a stage incubator (37°C, 5% CO2). […] The potential presence of various arrhythmic events was evaluated and noted during the data analysis. […]
Respond numerically; units are % and should not be typed.

Recorded FPD (field-potential duration), % change from baseline (compound CC(C)(Sc1cc(C(C)(C)C)c(O)c(C(C)(C)C)c1)Sc1cc(C(C)(C)C)c(O)c(C(C)(C)C)c1 ): 11.3

Recorded FPD (field-potential duration), % change from baseline (compound COc1nc(N)nc2c1ncn2[C@@H]1O[C@H](COP(=O)(N[C@@H](C)C(=O)OCC(C)(C)C)Oc2cccc3ccccc23)[C@@H](O)[C@@]1(C)O (stereo partly drawn) ): -24.2

Recorded FPD (field-potential duration), % change from baseline (compound C[C@H](CS)C(=O)N1CCC[C@H]1C(=O)O ): 5.3

Recorded FPD (field-potential duration), % change from baseline (compound C#Cc1cccc(Nc2ncnc3cc(OCCOC)c(OCCOC)cc23)c1 ): 7.2

Recorded FPD (field-potential duration), % change from baseline (compound CC(=O)Oc1ccccc1C(=O)O ): 5.8

Recorded FPD (field-potential duration), % change from baseline (compound CC1(C)S[C@@H]2[C@H](NC(=O)[C@H](N)c3ccc(O)cc3)C(=O)N2[C@H]1C(=O)O ): -3.1

----------
Give FPD (field-potential duration), % change from baseline for every item shown.
- Tested on: hiPSC-CMs (iCell-Cardiomyocytes^2)
- setup_conditions: 1 µM, 24h
Respond numerically; units are % and should not be typed.

// assay hiPSC-CMs (iCell-Cardiomyocytes^2), entry CC(C)(Sc1cc(C(C)(C)C)c(O)c(C(C)(C)C)c1)Sc1cc(C(C)(C)C)c(O)c(C(C)(C)C)c1 , FPD (field-potential duration), % change from baseline value = 13

// assay hiPSC-CMs (iCell-Cardiomyocytes^2), entry Cc1cn(-c2cc(NC(=O)c3ccc(C)c(Nc4nccc(-c5cccnc5)n4)c3)cc(C(F)(F)F)c2)cn1 , FPD (field-potential duration), % change from baseline value = 264.1

// assay hiPSC-CMs (iCell-Cardiomyocytes^2), entry C[C@H](CS)C(=O)N1CCC[C@H]1C(=O)O , FPD (field-potential duration), % change from baseline value = 5

// assay hiPSC-CMs (iCell-Cardiomyocytes^2), entry O=C(O)COCCN1CCN(C(c2ccccc2)c2ccc(Cl)cc2)CC1 (centres unmarked) , FPD (field-potential duration), % change from baseline value = 19.3

// assay hiPSC-CMs (iCell-Cardiomyocytes^2), entry COc1nc(N)nc2c1ncn2[C@@H]1O[C@H](COP(=O)(N[C@@H](C)C(=O)OCC(C)(C)C)Oc2cccc3ccccc23)[C@@H](O)[C@@]1(C)O (some centres unmarked) , FPD (field-potential duration), % change from baseline value = -10.7

// assay hiPSC-CMs (iCell-Cardiomyocytes^2), entry C#Cc1cccc(Nc2ncnc3cc(OCCOC)c(OCCOC)cc23)c1 , FPD (field-potential duration), % change from baseline value = 5.5

// assay hiPSC-CMs (iCell-Cardiomyocytes^2), entry N=C(N)c1ccc(OCCCCCOc2ccc(C(=N)N)cc2)cc1 , FPD (field-potential duration), % change from baseline value = 8

// assay hiPSC-CMs (iCell-Cardiomyocytes^2), entry CC1(C)S[C@@H]2[C@H](NC(=O)[C@H](N)c3ccc(O)cc3)C(=O)N2[C@H]1C(=O)O , FPD (field-potential duration), % change from baseline value = -2.8

----------
Give Imp (impedance), % change from baseline for every item shown.
- System: hiPSC-CMs (iCell-Cardiomyocytes^2)
- method: MEA impedance (cytotoxicity readout) in hiPSC-CMs
- setup_conditions: 1 µM, 24h
Respond numerically; units are % and should not be typed.

Recorded Imp (impedance), % change from baseline (compound COc1cccc2c1C(=O)c1c(O)c3c(c(O)c1C2=O)C[C@@](O)(C(=O)CO)C[C@@H]3O[C@H]1C[C@H](N)[C@H](O)[C@H](C)O1 ): -56

Recorded Imp (impedance), % change from baseline (compound C#Cc1cccc(Nc2ncnc3cc(OCCOC)c(OCCOC)cc23)c1 ): -6

Recorded Imp (impedance), % change from baseline (compound N=C(N)c1ccc(OCCCCCOc2ccc(C(=N)N)cc2)cc1 ): -4

----------
- Tested on: hiPSC-CMs (iCell-Cardiomyocytes^2)
- setup_conditions: 0.1 µM, 2h
outcome_measure: FPD (field-potential duration), % change from baseline (%)
Respond numerically; units are % and should not be typed.

Recorded FPD (field-potential duration), % change from baseline (compound N=C(N)c1ccc(OCCCCCOc2ccc(C(=N)N)cc2)cc1 ): 2.6

Recorded FPD (field-potential duration), % change from baseline (compound O=C(O)COCCN1CCN(C(c2ccccc2)c2ccc(Cl)cc2)CC1 (centres unmarked) ): 3.2

Recorded FPD (field-potential duration), % change from baseline (compound CCN(CC)CCNC(=O)c1c(C)[nH]c(/C=C2\C(=O)Nc3ccc(F)cc32)c1C ): 12.2

Recorded FPD (field-potential duration), % change from baseline (compound Cc1cn(-c2cc(NC(=O)c3ccc(C)c(Nc4nccc(-c5cccnc5)n4)c3)cc(C(F)(F)F)c2)cn1 ): 8.9

Recorded FPD (field-potential duration), % change from baseline (compound COc1cccc2c1C(=O)c1c(O)c3c(c(O)c1C2=O)C[C@@](O)(C(=O)CO)C[C@@H]3O[C@H]1C[C@H](N)[C@H](O)[C@H](C)O1 ): -0.9

FYI, the data here is from paper PMC10364322.
